- target: T1, Human EphA2 (Ecto), C-terminal polyHis (Human, UniProt P29317 24-537)
- T1 construct: extracellular domain; also called EPH receptor A2; ephrin type-A receptor 2
- T1 sequence (P29317 24-537): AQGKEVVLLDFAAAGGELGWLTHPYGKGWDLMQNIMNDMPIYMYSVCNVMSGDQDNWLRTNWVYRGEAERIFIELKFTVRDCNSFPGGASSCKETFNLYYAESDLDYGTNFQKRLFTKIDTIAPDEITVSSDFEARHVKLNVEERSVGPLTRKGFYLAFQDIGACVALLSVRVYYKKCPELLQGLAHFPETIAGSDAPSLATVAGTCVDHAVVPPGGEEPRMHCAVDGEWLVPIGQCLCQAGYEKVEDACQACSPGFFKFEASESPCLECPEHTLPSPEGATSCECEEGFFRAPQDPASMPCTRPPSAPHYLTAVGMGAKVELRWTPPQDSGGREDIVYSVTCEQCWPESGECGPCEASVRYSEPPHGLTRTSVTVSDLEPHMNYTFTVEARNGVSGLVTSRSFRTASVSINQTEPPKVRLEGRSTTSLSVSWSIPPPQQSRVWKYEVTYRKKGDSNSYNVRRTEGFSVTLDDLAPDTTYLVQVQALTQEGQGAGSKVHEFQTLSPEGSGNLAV
- method summary: fluorescence polarisation competition; competitor fluorescent Compound 12
Starred links: 1 amine or outer side, 2 acyl side, 3 side chain; linkers in the order of their positions; H or OH if unused. Positions of bridges follow the written chain, without caps; N, C: chain ends. No end group written: not given here. TBMB = c1c(C[*:1])cc(C[*:3])cc1C[*:2]
property: Ki
Provide the measurement as a number trailed by its unit.

Entry ACVPQGIWCALQFEPCA (linker 2-9-16 via TBMB (inferred), also called Compound 63) [Bicycle Compound Number 63 (TBMB scaffold)] has what Ki? 92.2 nM

Entry ACTTGSIWCALQFEPCA (linker 2-9-16 via TBMB (inferred), also called Compound 64) [Bicycle Compound Number 64 (TBMB scaffold)] has what Ki? 410 nM

Entry ACPWGPAWCPVNRPGCAGAAA (linker 2-9-16 via TBMB (inferred), also called Compound 45) [Bicycle Compound Number 45 (TBMB scaffold)] has what Ki? 99.2 nM
